Known Kd of a selection of binders
Target: human delta N-HTRA1 (amino acids 156-480 of SEQ ID NO:1) (human, UniProt Q92743 156-480)
Sequence (Q92743 156-480, stated change not applied): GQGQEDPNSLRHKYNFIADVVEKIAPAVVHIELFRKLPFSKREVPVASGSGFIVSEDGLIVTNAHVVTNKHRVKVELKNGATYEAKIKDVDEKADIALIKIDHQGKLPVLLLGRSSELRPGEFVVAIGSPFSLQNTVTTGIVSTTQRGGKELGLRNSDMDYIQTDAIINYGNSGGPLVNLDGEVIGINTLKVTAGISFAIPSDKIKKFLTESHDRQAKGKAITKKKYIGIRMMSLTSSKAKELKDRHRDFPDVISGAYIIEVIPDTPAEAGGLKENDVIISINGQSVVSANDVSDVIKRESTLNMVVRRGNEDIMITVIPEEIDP
Assay: SPR (Biacore); antibody captured by anti-Fc, human delta N-HTRA1 injected; temperature of this table not stated
Please reply with the bare figure in nM and do not write the unit itself.

// query What value of Kd has been recorded for this entry: antibody 65G8 (antibody, V domains shown, Mouse hybridoma monoclonal antibody) VH: QVQLQQSGPQLVRPGASVKISCKASGYSFTSYWMHWVKQRPGQGLEWIGMIDPSDSETRLNQKFKDKATLTIDKSSSTAYMQLSSPTSEDSAVYYCTRDYFDYWGQGTTLTVSS VL: QIVLTQSPAIMSTSPGEKVTMTCSASSSVSYMYWYQQKPGSSPRLLIYDTSNLASGVPVRFSGSGSGTSYSLTISRMEAEDAATYYCQQWSSYPYTFGGGTKLEIK
// result 0.42

// query antibody 55B12 (antibody, V domains shown, Mouse hybridoma monoclonal antibody) VH: QVQLQQPGAELVKPGASVKLSCKASGYTFTNYWMHWVKQRPGQGLEWIGNIDPSDSETHYNQKFKDKATLAVDKSSSTAYMQLSSLTSEDSAVYYCAREDSSGYGAYWGQGTLVTVSA VL: QIVLTQSPAIMSASPGEKVTMTCSASSSVNYMHWYQQKSGTSPKRWIYDTSKLASGVPDRFSGSGSGTSYSLTISSMEAEDAATYYCQQWSSHPLTFGAGTKLELK , same question.
// result 0.45

// query Same read-out for antibody 24F7 (antibody, V domains shown, Mouse hybridoma monoclonal antibody; also called parental 24F7 antibody) VH: QVQLQQSGAELVRPGASVKLSCKASGYTFTDYEMHWVKQTPVHGLEWIGAIDPETGGTAYNQKFKGKATLTADKSSSTAYMELRSLTSEDSAVYYCTREGYSYDGGGYYFDYWGQGTTLTVSS VL: QIVLTQSPAIMSASPGEKVTMTCSVSSSVSYMYWYQQKPGSSPRLLIYDTSNLASGVPVRFSGSGSGTSYSLTISRMEAEDAATYYCQQWSSYPTFGGGTKLEIK ?
// result 0.012

Okay, now this binder:
// query Please give the measured Kd for this binder: antibody 9F8 (antibody, V domains shown, Mouse hybridoma monoclonal antibody) VH: QVQLQQPGAELVRPGSSVKLSCKASGYAFTTYWMHWVKQRPIQGLEWIGNIDPSDSETHYNQKFRDKATLTVDKSSSTAYMQLSSLTSEDSAVYYCARDYGAFDVWGTGTTVTVSS VL: QAVVTQESALTTSSGETVTLTCRSSTGAVTTRNFASWVQEKPDHLFTGLIGGTNNRAPGVPARFSGSLIGDKAALTITGAQTEDEAIYFCALWYSNLWVFGGGTKLTVL
// result 0.14
